# Tested on: KB
# METHOD SUMMARY: Growth inhibition of human KB-7D cells overexpressing multidrug resistant associated protein after 72 hrs by methylene blue dye assay
# Format: functional, cell-based
MEASUREMENT NAME: IC50 (nM)
Report the value in nM with no unit label.

## Input Tell me the measured IC50 of COc1ccc2c(C(=O)c3cc(OC)c(OC)c(OC)c3)c(N)ccc2c1 , please.
## Output 3.5

## Input Given the compound CC[C@]1(O)C[C@H]2CN(CCc3c([nH]c4ccccc34)[C@@](C(=O)OC)(c3cc4c(cc3OC)N(C=O)[C@H]3[C@@](O)(C(=O)OC)[C@H](OC(C)=O)[C@]5(CC)C=CCN6CC[C@]43[C@@H]65)C2)C1 [VINCRISTINE] , what is its reported IC50?
## Output 1.2

## Input Which IC50 value belongs to COc1cc([C@@H]2c3cc4c(cc3[C@@H](O[C@@H]3O[C@@H]5CO[C@@H](C)O[C@H]5[C@H](O)[C@H]3O)[C@H]3COC(=O)[C@H]23)OCO4)cc(OC)c1O [ETOPOSIDE] ?
## Output 54000

## Input Look at this compound and give its reported IC50. CC(=O)O[C@H]1C(=O)[C@@]2(C)[C@H]([C@H](OC(=O)c3ccccc3)[C@]3(O)C[C@H](OC(=O)[C@H](O)[C@@H](NC(=O)c4ccccc4)c4ccccc4)C(C)=C1C3(C)C)[C@]1(OC(C)=O)CO[C@@H]1C[C@@H]2O [PACLITAXEL]
## Output 7.9

## Input Find the recorded IC50 belonging to COc1ccc2c(C(=O)c3cc(OC)c(OC)c(OC)c3)c(O)ccc2c1 and report it.
## Output 16.9

---

I'd be grateful if you could share measured pIC50 for these entries.
# METHOD SUMMARY: Growth inhibition of human fibroblast Detrot 551 cells after 72 hrs by methylene blue dye assay
# Type: cell-based
# CONDITIONS: Detrot 551, 72 h
pIC50: −log10 of the molar value.

## Input Fill blank: measured pIC50 of the compound COc1ccc2c(C(=O)c3cc(OC)c(OC)c(OC)c3)c(N)ccc2c1 is ____.
## Output < 6.00

## Input Give its pIC50 value. Item: COc1ccc2c(C(=O)c3cc(OC)c(OC)c(OC)c3)c(O)ccc2c1
## Output < 6.00

---

# METHOD SUMMARY: Displacement of [3H]colchicine from tubulin after 2 hrs at 5 uM
MEASUREMENT NAME: Activity (%)
State just the number; it will be interpreted in %.

## Input Which Activity is reported for this compound? COc1ccc2c(C(=O)c3cc(OC)c(OC)c(OC)c3)cccc2c1
## Output 68

## Input // returns reported Activity for input COc1ccc2c(C(=O)c3cc(OC)c(OC)c(OC)c3)c(C)ccc2c1
## Output 67

## Input # lookup: Activity of COc1ccc2c(C(=O)c3cc(OC)c(OC)c(OC)c3)c[nH]c2c1
## Output 85

## Input What does the data say about its Activity? Entry: COc1ccc2c(C(=O)c3cc(OC)c(OC)c(OC)c3)c(N)ccc2c1
## Output 85

## Input Item COc1ccc(/C=C\c2cc(OC)c(OC)c(OC)c2)cc1O has what recorded Activity?
## Output 93

## Input Which Activity value is on record for COc1ccc2c(C(=O)c3cc(OC)c(OC)c(OC)c3)c(O)ccc2c1 ?
## Output 75

## Input I am curious: what Activity value has been reported for COc1ccc2c(C(=O)c3cc(OC)c(OC)c(OC)c3)c(OC)ccc2c1 ?
## Output 52
